Origin of the recorded values: patent US4201843A

# System: Staphylococcus aureus MS 9610
# assay_summary: minimum growth-inhibitory concentration
# Format: cell-based
# condition_info: MS9610; Staphylococcus aureus MS 9610, drug resistant strain
test_readout: MIC (µg/mL)
The response must be a number in µg/mL with no trailing unit.

compound	unit_info	MIC
CCC1OC(=O)CC(O)C(C)C(OC2OC(C)C(OC3CC(C)(O)C(OC(=O)CC(C)C)C(C)O3)C(N(C)C)C2O)C(CC=O)CC(C)C(=O)/C=C/C(C)=C/C1COC1OC(C)C(O)C(OC)C1OC (stereo not drawn) [4"-isovaleryltylosin]	µg/mL	62.5

# input Please state recorded MIC (tested on Staphylococcus aureus MS 9610) of CCC(=O)OC1CC(=O)OC(CC)C(COC2OC(C)C(O)C(OC)C2OC)C=C(C)C=CC(=O)C(C)CC(CC=O)C(OC2OC(C)C(OC3CC(C)(O)C(OC(=O)CC(C)C)C(C)O3)C(N(C)C)C2O)C1C (stereo not drawn) [3-propionyl-4"-isovaleryltylosin]
# output 62.5

# input Please state recorded MIC (tested on Staphylococcus aureus MS 9610) of CCCC(=O)OC1C(C)OC(OC2C(C)OC(OC3C(CC=O)CC(C)C(=O)C=CC(C)=CC(COC4OC(C)C(O)C(OC)C4OC)C(CC)OC(=O)CC(OC(=O)CC)C3C)C(O)C2N(C)C)CC1(C)O (stereo not drawn) [3-propionyl-4"-n-butyryltylosin]
# output 250

# input Please state recorded MIC (tested on Staphylococcus aureus MS 9610) of CCCC(=O)OC1C(C)OC(OC2C(C)OC(OC3C(CC=O)CC(C)C(=O)C=CC(C)=CC(COC4OC(C)C(O)C(OC)C4OC)C(CC)OC(=O)CC(OC(C)=O)C3C)C(O)C2N(C)C)CC1(C)O (stereo not drawn) [3-acetyl-4"-n-butyryltylosin]
# output 250

# input Please state recorded MIC (tested on Staphylococcus aureus MS 9610) of CCC1OC(=O)CC(OC(C)=O)C(C)C(OC2OC(C)C(OC3CC(C)(O)C(OC(=O)CC(C)C)C(C)O3)C(N(C)C)C2O)C(CC=O)CC(C)C(=O)C=CC(C)=CC1COC1OC(C)C(O)C(OC)C1OC (stereo not drawn) [3-acetyl-4"-isovaleryltylosin]
# output 62.5

----------
# assay_summary: solubility in solvents
# Assay type: physicochemical
# condition_info: n-hexane and petroleum ether
# Text: The physicochemical analysis and deterimations included elementary analysis, melting point, specific rotatory power, ultraviolet spectrum, infrared spectrum, magnetic nuclear resonance (NMR), C^13 -NMR, mass spectrum (chemical ionization), the release of organic acids under alkaline conditions (gas chromatographical detection), solubility in solvents, color development reaction, basicity of the compounds, appearance and crystalline form. […]
test_readout: solubility in n-hexane and petroleum ether

compound	value_reported
CCCC(=O)OC1C(C)OC(OC2C(C)OC(OC3C(CC=O)CC(C)C(=O)C=CC(C)=CC(COC4OC(C)C(O)C(OC)C4OC)C(CC)OC(=O)CC(OC(C)=O)C3C)C(O)C2N(C)C)CC1(C)O (centres unmarked)	hardly soluble
CCC1OC(=O)CC(O)C(C)C(OC2OC(C)C(OC3CC(C)(O)C(OC(=O)CC(C)C)C(C)O3)C(N(C)C)C2O)C(CC=O)CC(C)C(=O)/C=C/C(C)=C/C1COC1OC(C)C(O)C(OC)C1OC (centres unmarked)	hardly soluble

----------
# System: Staphylococcus aureus SMITH
test_readout: MIC

# input Please state recorded MIC (tested on Staphylococcus aureus SMITH) of CCCC(=O)OC1C(C)OC(OC2C(C)OC(OC3C(CC=O)CC(C)C(=O)C=CC(C)=CC(COC4OC(C)C(O)C(OC)C4OC)C(CC)OC(=O)CC(OC(C)=O)C3C)C(O)C2N(C)C)CC1(C)O (stereo not drawn) [3-acetyl-4"-n-butyryltylosin]
# output 0.25 µg/mL

# input Please state recorded MIC (tested on Staphylococcus aureus SMITH) of CCC(=O)OC1CC(=O)OC(CC)C(COC2OC(C)C(O)C(OC)C2OC)C=C(C)C=CC(=O)C(C)CC(CC=O)C(OC2OC(C)C(OC3CC(C)(O)C(OC(=O)CC(C)C)C(C)O3)C(N(C)C)C2O)C1C (stereo not drawn) [3-propionyl-4"-isovaleryltylosin]
# output 1.95 µg/mL

# input Please state recorded MIC (tested on Staphylococcus aureus SMITH) of CC[C@H]1OC(=O)C[C@@H](O)[C@H](C)[C@@H](O[C@@H]2O[C@H](C)[C@@H](O[C@H]3C[C@@](C)(O)[C@@H](O)[C@H](C)O3)[C@H](N(C)C)[C@H]2O)[C@@H](CC=O)C[C@@H](C)C(=O)/C=C/C(C)=C/[C@@H]1CO[C@@H]1O[C@H](C)[C@@H](O)[C@@H](OC)[C@H]1OC [tylosin]
# output 0.25 µg/mL

# input Please state recorded MIC (tested on Staphylococcus aureus SMITH) of CCCC(=O)OC1C(C)OC(OC2C(C)OC(OC3C(CC=O)CC(C)C(=O)C=CC(C)=CC(COC4OC(C)C(O)C(OC)C4OC)C(CC)OC(=O)CC(OC(=O)CC)C3C)C(O)C2N(C)C)CC1(C)O (stereo not drawn) [3-propionyl-4"-n-butyryltylosin]
# output 0.25 µg/mL

# input Please state recorded MIC (tested on Staphylococcus aureus SMITH) of CCC1OC(=O)CC(OC(C)=O)C(C)C(OC2OC(C)C(OC3CC(C)(O)C(O)C(C)O3)C(N(C)C)C2O)C(CC=O)CC(C)C(=O)/C=C/C(C)=C/C1COC1OC(C)C(O)C(OC)C1OC (stereo not drawn) [3-acetyltylosin]
# output 0.12 µg/mL

# input Please state recorded MIC (tested on Staphylococcus aureus SMITH) of CCC1OC(=O)CC(OC(C)=O)C(C)C(OC2OC(C)C(OC3CC(C)(O)C(OC(=O)CC(C)C)C(C)O3)C(N(C)C)C2O)C(CC=O)CC(C)C(=O)C=CC(C)=CC1COC1OC(C)C(O)C(OC)C1OC (stereo not drawn) [3-acetyl-4"-isovaleryltylosin]
# output 0.49 µg/mL

# input Please state recorded MIC (tested on Staphylococcus aureus SMITH) of CCC(=O)OC1CC(=O)OC(CC)C(COC2OC(C)C(O)C(OC)C2OC)/C=C(C)/C=C/C(=O)C(C)CC(CC=O)C(OC2OC(C)C(OC3CC(C)(O)C(O)C(C)O3)C(N(C)C)C2O)C1C (stereo not drawn) [3-propionyltylosin]
# output 0.12 µg/mL

# input Please state recorded MIC (tested on Staphylococcus aureus SMITH) of CCCC(=O)OC1C(C)OC(OC2C(C)OC(OC3C(CC=O)CC(C)C(=O)/C=C/C(C)=C/C(COC4OC(C)C(O)C(OC)C4OC)C(CC)OC(=O)CC(O)C3C)C(O)C2N(C)C)CC1(C)O (stereo not drawn) [4"-n-butyryltylosin]
# output 0.25 µg/mL

# input Please state recorded MIC (tested on Staphylococcus aureus SMITH) of CCC1OC(=O)CC(O)C(C)C(OC2OC(C)C(OC3CC(C)(O)C(OC(=O)CC(C)C)C(C)O3)C(N(C)C)C2O)C(CC=O)CC(C)C(=O)/C=C/C(C)=C/C1COC1OC(C)C(O)C(OC)C1OC (stereo not drawn) [4"-isovaleryltylosin]
# output 0.25 µg/mL

----------
Recorded MIC values (Proteus morganii (The Institute for Infectious Diseases)) are given below.

A selection of reference data follows.
molecule	target_system	MIC
CCC(=O)OC1CC(=O)OC(CC)C(COC2OC(C)C(O)C(OC)C2OC)C=C(C)C=CC(=O)C(C)CC(CC=O)C(OC2OC(C)C(OC3CC(C)(O)C(OC(=O)CC(C)C)C(C)O3)C(N(C)C)C2O)C1C (stereo not drawn) [3-propionyl-4"-isovaleryltylosin]	Proteus morganii (The Institute for Infectious Diseases)	> 250 µg/mL
CCCC(=O)OC1C(C)OC(OC2C(C)OC(OC3C(CC=O)CC(C)C(=O)C=CC(C)=CC(COC4OC(C)C(O)C(OC)C4OC)C(CC)OC(=O)CC(OC(C)=O)C3C)C(O)C2N(C)C)CC1(C)O (stereo not drawn) [3-acetyl-4"-n-butyryltylosin]	Proteus morganii (The Institute for Infectious Diseases)	> 250 µg/mL

Alright, here's another molecule for you.
# input Please state recorded MIC (tested on Proteus morganii (The Institute for Infectious Diseases)) of CCC1OC(=O)CC(O)C(C)C(OC2OC(C)C(OC3CC(C)(O)C(OC(=O)CC(C)C)C(C)O3)C(N(C)C)C2O)C(CC=O)CC(C)C(=O)/C=C/C(C)=C/C1COC1OC(C)C(O)C(OC)C1OC (stereo not drawn) [4"-isovaleryltylosin]
# output > 250 µg/mL

----------
# assay_summary: solubility in solvents
# Format: physicochemical
# condition_info: e.g. ethanol, acetone, ethyl ether, ethyl acetate, benzene, toluene
test_readout: solubility in lower alcohols, ketones, ethers, esters, benzene and toluene

A selection of reference data follows.
compound	value_reported
CCCC(=O)OC1C(C)OC(OC2C(C)OC(OC3C(CC=O)CC(C)C(=O)/C=C/C(C)=C/C(COC4OC(C)C(O)C(OC)C4OC)C(CC)OC(=O)CC(O)C3C)C(O)C2N(C)C)CC1(C)O (centres unmarked) [4"-n-butyryltylosin]	soluble
CCC1OC(=O)CC(O)C(C)C(OC2OC(C)C(OC3CC(C)(O)C(OC(=O)CC(C)C)C(C)O3)C(N(C)C)C2O)C(CC=O)CC(C)C(=O)/C=C/C(C)=C/C1COC1OC(C)C(O)C(OC)C1OC (centres unmarked) [4"-isovaleryltylosin]	soluble
CCCC(=O)OC1C(C)OC(OC2C(C)OC(OC3C(CC=O)CC(C)C(=O)C=CC(C)=CC(COC4OC(C)C(O)C(OC)C4OC)C(CC)OC(=O)CC(OC(C)=O)C3C)C(O)C2N(C)C)CC1(C)O (centres unmarked) [3-acetyl-4"-n-butyryltylosin]	soluble
CCC1OC(=O)CC(OC(C)=O)C(C)C(OC2OC(C)C(OC3CC(C)(O)C(O)C(C)O3)C(N(C)C)C2O)C(CC=O)CC(C)C(=O)/C=C/C(C)=C/C1COC1OC(C)C(O)C(OC)C1OC (centres unmarked) [3-acetyltylosin]	soluble
CCC(=O)OC1CC(=O)OC(CC)C(COC2OC(C)C(O)C(OC)C2OC)C=C(C)C=CC(=O)C(C)CC(CC=O)C(OC2OC(C)C(OC3CC(C)(O)C(OC(=O)CC(C)C)C(C)O3)C(N(C)C)C2O)C1C (centres unmarked) [3-propionyl-4"-isovaleryltylosin]	soluble
CCCC(=O)OC1C(C)OC(OC2C(C)OC(OC3C(CC=O)CC(C)C(=O)C=CC(C)=CC(COC4OC(C)C(O)C(OC)C4OC)C(CC)OC(=O)CC(OC(=O)CC)C3C)C(O)C2N(C)C)CC1(C)O (centres unmarked) [3-propionyl-4"-n-butyryltylosin]	soluble
CCC(=O)OC1CC(=O)OC(CC)C(COC2OC(C)C(O)C(OC)C2OC)/C=C(C)/C=C/C(=O)C(C)CC(CC=O)C(OC2OC(C)C(OC3CC(C)(O)C(O)C(C)O3)C(N(C)C)C2O)C1C (centres unmarked) [3-propionyltylosin]	soluble

Alright, here's another compound for you.
# input Sample CCC1OC(=O)CC(OC(C)=O)C(C)C(OC2OC(C)C(OC3CC(C)(O)C(OC(=O)CC(C)C)C(C)O3)C(N(C)C)C2O)C(CC=O)CC(C)C(=O)C=CC(C)=CC1COC1OC(C)C(O)C(OC)C1OC (centres unmarked) [3-acetyl-4"-isovaleryltylosin] — what was its solubility in lower alcohols, ketones, ethers, esters, benzene and toluene?
# output soluble
